Where do these numbers come from? They come from patent US9688764B2.

Target: T1, HEK293/hPRLR (Homo sapiens, UniProt P16471)
T1 construct: HA; expressed in transfected cells; host or cells: HEK293
T1 sequence (P16471 25-622): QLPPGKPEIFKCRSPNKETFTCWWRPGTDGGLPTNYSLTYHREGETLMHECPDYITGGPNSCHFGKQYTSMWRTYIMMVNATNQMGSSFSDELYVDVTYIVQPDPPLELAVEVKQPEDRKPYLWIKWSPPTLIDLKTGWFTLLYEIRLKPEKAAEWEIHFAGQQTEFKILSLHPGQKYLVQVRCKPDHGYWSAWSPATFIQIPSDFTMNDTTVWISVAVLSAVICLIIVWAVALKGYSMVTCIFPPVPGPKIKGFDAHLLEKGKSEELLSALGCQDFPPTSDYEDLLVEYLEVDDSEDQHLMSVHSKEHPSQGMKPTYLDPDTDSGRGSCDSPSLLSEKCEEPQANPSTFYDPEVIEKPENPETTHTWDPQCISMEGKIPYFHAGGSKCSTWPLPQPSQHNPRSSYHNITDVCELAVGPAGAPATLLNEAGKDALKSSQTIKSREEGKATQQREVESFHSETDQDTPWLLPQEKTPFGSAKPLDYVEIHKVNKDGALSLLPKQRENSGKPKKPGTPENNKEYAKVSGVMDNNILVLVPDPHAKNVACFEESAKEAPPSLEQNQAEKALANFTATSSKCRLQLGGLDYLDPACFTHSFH
Assay: FACS cell surface binding
Below is a list of entries, each paired with its recorded FACS Cell Binding (Fold Above Background) value.
reported_metric: FACS Cell Binding (Fold Above Background)

{"columns": ["molecule", "numeric_value"],
 "data": [
  ["H1H6953N: human IgG1 Fc form of H1M6953N; anti-PRLR; HCVR/LCVR SEQ ID NOs 274/282 (antibody, V domains shown, human IgG1 Fc) VH: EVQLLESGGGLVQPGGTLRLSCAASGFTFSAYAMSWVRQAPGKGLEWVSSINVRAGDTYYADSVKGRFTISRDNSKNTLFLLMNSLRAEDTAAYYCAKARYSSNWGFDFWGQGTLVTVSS VL: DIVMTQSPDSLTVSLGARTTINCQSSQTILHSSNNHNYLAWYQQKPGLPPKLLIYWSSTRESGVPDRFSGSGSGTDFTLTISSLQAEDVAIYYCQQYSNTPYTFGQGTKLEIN", 37],
  ["H1H6781P: anti-PRLR antibody, human IgG1 Fc; HCVR/LCVR SEQ ID NOs 50/58 (antibody, V domains shown, human IgG1 Fc) VH: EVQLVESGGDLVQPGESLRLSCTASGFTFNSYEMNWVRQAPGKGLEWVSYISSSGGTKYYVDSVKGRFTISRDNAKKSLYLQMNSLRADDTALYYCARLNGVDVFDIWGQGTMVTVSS VL: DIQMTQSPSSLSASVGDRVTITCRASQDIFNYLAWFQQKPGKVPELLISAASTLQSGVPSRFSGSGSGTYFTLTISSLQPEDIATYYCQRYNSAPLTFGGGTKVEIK", 37]
]}
